Measured values drawn from paper PMC7733455 for this set.

experiment: Liver microsome metabolism assay, rat; assay type: in vitro ADME; conditions: rat liver microsomes; read-out: CL in liver microsomes
assay-metric: CLint scaled at 1 µM (mL/min/kg)
Numbers only, in mL/min/kg.

The molecule listed as Cl.Cn1cc(CN2CCC3(CCN(c4ncc(C(=O)NO)cn4)C3)C2)c2cc(C#N)ccc21 (stereo not shown) shows CLint scaled at 1 µM equal to 196

----------
Consider the following compounds; for each one, report its EC50.
tested on: P. falciparum isolate 6320; assay: 3-day SYBR Green I GIA, field isolate 6320; format: cell-based; settings: Plasmodium falciparum; artemisinin- and piperaquine-resistant isolate; read-out: Resistant isolates EC50, 6320

# compound, EC50
records = [
    ("C[C@H]1[C@@H](O)O[C@@H]2O[C@@]3(C)CC[C@H]4[C@H](C)CC[C@@H]1[C@@]24OO3 [DHA, dihydroartemisinin, reference compound]", "6.5 nM"),
]

// next item, EC50 requested
The compound listed as Cl.Cn1cc(CN2CCC3(CCN(c4ncc(C(=O)NO)cn4)C3)C2)c2cc(C#N)ccc21 (centres unmarked) [JX21108] shows EC50 equal to 2.6 nM
